Hey, just so you know, these numbers are from patent US10213418B2.

Experiment: Solubility
Assay type: physicochemical
Run Conditions: water; aqueous berberine solubility; read-out: solubility

Smiles Str	Unit Abbrev	solubility
COc1ccc2cc3[n+](cc2c1OC)CCc1cc2c(cc1-3)OCO2	µg/mL	1570

====

Experiment: Partition coefficient in an octanol-water system
Format: physicochemical
Run Conditions: berberine alone

Molecule	logP
COc1ccc2cc3[n+](cc2c1OC)CCc1cc2c(cc1-3)OCO2 [berberine]	0.0294

====

Experiment: Solubility
Format: physicochemical
Run Conditions: medium containing SDS (sodium dodecyl sulfate), aqueous with cosolvent or surfactant or cyclodextrin; pH of between 4 and 7; read-out: berberine solubility in the presence of SDS

Compound	solubility
COc1ccc2cc3[n+](cc2c1OC)CCc1cc2c(cc1-3)OCO2 [berberine]	10 to 60 µg/mL
